# STUDY_SYSTEM: Cytochrome P450 2C9 (Homo sapiens) (UniProt P11712)
# Sequence (P11712 whole entry, looked up): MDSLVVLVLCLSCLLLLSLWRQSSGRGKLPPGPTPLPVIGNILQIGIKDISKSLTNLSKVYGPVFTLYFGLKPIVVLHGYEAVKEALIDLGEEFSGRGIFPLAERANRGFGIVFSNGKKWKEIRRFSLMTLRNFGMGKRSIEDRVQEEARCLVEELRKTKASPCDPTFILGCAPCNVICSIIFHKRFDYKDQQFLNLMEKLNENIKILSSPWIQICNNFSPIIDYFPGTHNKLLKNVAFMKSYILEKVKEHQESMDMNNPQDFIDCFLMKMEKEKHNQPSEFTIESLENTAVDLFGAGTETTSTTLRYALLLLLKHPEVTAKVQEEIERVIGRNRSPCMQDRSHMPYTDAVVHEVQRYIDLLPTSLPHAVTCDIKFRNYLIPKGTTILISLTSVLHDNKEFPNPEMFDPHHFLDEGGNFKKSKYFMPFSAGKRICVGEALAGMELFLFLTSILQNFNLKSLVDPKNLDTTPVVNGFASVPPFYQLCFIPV
# ASSAY_DETAILS: blockers of cytochrome P450 2C9 activity – biochemical, luminescence, ADME assay, primary screen (AID 777)
# APPLIED_CONDITIONS: CYP2C9 Supersomes, luciferin-H conversion, at 5 µM, hits give high values
Out of some 96,000 compounds screened, about 19,000 (20%) were called active. Not all results are given here.
// reported inhibition for each item listed
OBSERVED_PROPERTY: inhibition (%)

>>> assay_result("CC(C)C(=O)Nc1nnc(Sc2ccc(N(C)C)cc2)s1")
-3.9
>>> assay_result("Fc1ccccc1COc1ccccc1CNCc1ccncc1")
65.9
>>> assay_result("c1ccc(COc2ccccc2CNCc2cccnc2)cc1")
-14.1
>>> assay_result("CC(C)c1nnc(NC(=O)C2CCCN2S(=O)(=O)c2ccc(Cl)cc2)s1 (stereo not drawn)")
86.2
>>> assay_result("CN(C)Cc1c(O)ccc2occ(C(O)c3ccccc3)c12 (stereo not drawn)")
-6.6
>>> assay_result("COc1ccc(-n2nnnc2SCc2nc(N)nc(N3CCOCC3)n2)cc1")
35.6
>>> assay_result("CCOC(=O)C1CCN(C(=O)COc2cc(C)c(Br)c(C)c2)CC1")
15.8
>>> assay_result("O=C(c1ccco1)N1CCN(CC(=O)N(C2CCCCC2)C2CCS(=O)(=O)C2)CC1 (stereo not drawn)")
-18.6
>>> assay_result("CCOc1ccc(NC(=O)N2CCN(CC)CC2)cc1")
-0.2
>>> assay_result("CC(=O)NC1(c2cccc(F)c2)CCN(CC(=O)NC(C)C)CC1")
4.1
>>> assay_result("CN1CCN(c2ccc([N+](=O)[O-])c(Sc3nc4ccccc4[nH]3)c2)CC1")
52.2
>>> assay_result("COC(=O)c1ccc(C(=O)Nc2cc(Cl)ccc2Cl)cc1NC(=O)c1ccccc1C")
-13.7
>>> assay_result("Cc1ccc(S(=O)(=O)N2CCCC2C(=O)NCc2ccco2)cc1 (stereo not drawn)")
-48.4
>>> assay_result("CCN(CC)S(=O)(=O)c1ccc2nc(CSc3nnnn3-c3ccc(O)cc3)[nH]c2c1")
97.3
>>> assay_result("Cn1nc(-c2ccccc2)c(CSc2cccc(Cl)c2)c1Cl")
44.7
>>> assay_result("S=c1[nH]nc(-c2ccc(Cl)cc2)n1CC1CCCO1 (stereo not drawn)")
15.7
>>> assay_result("COc1ccccc1CSc1nc2ccccc2[nH]1")
43.6
>>> assay_result("O=C1c2ccccc2C2=Nc3ccccc3SC(c3ccccc3F)C12 (stereo not drawn)")
8.8
>>> assay_result("COc1ccc(-c2cc(C(=O)NC(C(=O)O)C(C)C)c(C)o2)cc1OC (stereo not drawn)")
21
>>> assay_result("CCN1CCC(=NNC(=O)c2ccc(C)c([N+](=O)[O-])c2)CC1")
7.3
>>> assay_result("O=c1[nH]c(=O)n(Cc2ccco2)c2c1C(C(F)(F)F)(C(F)(F)F)N=C(c1ccco1)N2")
1.8
>>> assay_result("CCN(CC)S(=O)(=O)c1ccc2nc(COC(=O)c3n[nH]c4ccccc34)[nH]c2c1")
77.2
>>> assay_result("Cn1ncc2c(Nc3cccc4ccccc34)ncnc21")
-1.5

====

# STUDY_SYSTEM: Cytochrome P450 2C9 (Homo sapiens)
# ASSAY_DETAILS: blockers of cytochrome P450 2C9 activity – biochemical, luminescence, ADME assay, primary screen (AID 777)
# APPLIED_CONDITIONS: CYP2C9 Supersomes, luciferin-H conversion, at 5 µM, hits give high values
Out of some 96,000 compounds screened, about 19,000 (20%) were called active. Only a sample is shown.
OBSERVED_PROPERTY: inhibition (%)

>>> assay_result("COc1ccc2nc(NC(=O)c3ccc(Br)s3)sc2c1")
1.5
>>> assay_result("Cc1ccc(C2=NN(C)c3nc4ccccc4n3C2)cc1")
6.9
>>> assay_result("Cc1cc(N/C=C\\C(=O)c2ccc(Cl)c(Cl)c2)no1")
7.8
>>> assay_result("CCOc1ccc(CC(=O)Nc2ccc(S(=O)(=O)Nc3cc(C)on3)cc2)cc1OCC")
7.3
>>> assay_result("O=C(OCC#CCSc1nnc(-c2ccncc2)o1)c1sc2ccccc2c1Cl")
30.1
>>> assay_result("CC(=O)NC(C)(C)C1CC=C(C)/C(=N\\O)C1 (configuration not stated)")
-8.6
>>> assay_result("CCOc1ccc(S(=O)(=O)Nc2nc3cc(OC)ccc3s2)cc1")
84.7
>>> assay_result("NC(=S)c1ccc(C(N)=S)o1")
23.3
>>> assay_result("CC(C)(C)n1c(=O)[nH]c2c(c1=O)CCC2")
-7.2
>>> assay_result("COc1ccc(-c2nc3ccccc3n2CCC(C)C)cc1OC")
59.6
>>> assay_result("CCOCCn1c(C(C)C)nc2ccccc21")
5.1
>>> assay_result("CCC(=O)Nc1nc(OC)cc(OC)n1")
2.1

====

# STUDY_SYSTEM: Cytochrome P450 2C9 (Homo sapiens)
# ASSAY_DETAILS: blockers of cytochrome P450 2C9 activity – biochemical, luminescence, ADME assay, primary screen (AID 777)
# APPLIED_CONDITIONS: CYP2C9 Supersomes, luciferin-H conversion, at 5 µM
The whole screen tested about 96,000 compounds, of which about 19,000 (20%) were called active.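 The calls were made as follows: active = blocking of liver enzyme CYP2C9 beyond about 50% at 5 µM (limit read from the data); inactive = the rest.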 These entries were drawn from the full list.
Labels: 1 (yes) (active), 0 (no) (inactive)

>>> assigned_class("CCC(=O)NC(NCC1CCCO1)C(Cl)(Cl)Cl (configuration not stated)")
"0 (no)"
>>> assigned_class("CCOC(=O)C(=CNc1cccc(C)n1)C(=O)OCC")
"0 (no)"
>>> assigned_class("Cc1ccccc1Nc1nnc(C)c(=O)[nH]1")
"0 (no)"
>>> assigned_class("O=C1CC(Sc2ncn[nH]2)C(=O)N1c1ccccc1 (configuration not stated)")
"0 (no)"
>>> assigned_class("O=C(COC(=O)c1ccc(Oc2ccccc2)cc1)Nc1nnc(-c2ccccc2)o1")
"1 (yes)"
>>> assigned_class("Cc1nnc(SCC(=O)N2CCN(c3ccccc3)CC2)n1-c1ccccc1")
"0 (no)"
>>> assigned_class("Cc1ccc(OC(=O)c2ccccc2C(=O)OCC(F)(F)C(F)F)cc1")
"1 (yes)"
>>> assigned_class("O=c1c2cc3c(=O)n(CC4CCCO4)c(=O)c3cc2c(=O)n1CC1CCCO1 (configuration not stated)")
"0 (no)"
>>> assigned_class("Cc1ccc(OC(=O)c2cc3ccccc3o2)cc1")
"0 (no)"
>>> assigned_class("CCOc1cccc(=O)c2c(C)n(CC3CCCO3)c(C)c12 (configuration not stated)")
"1 (yes)"
>>> assigned_class("CCOc1ccc(C(O)Cn2c(=N)n(CCN3CCCCC3)c3ccccc32)cc1 (configuration not stated)")
"0 (no)"
>>> assigned_class("COc1ccccc1C(=O)Oc1ccc(N2C(=O)CCC2=O)cc1")
"0 (no)"

====

# STUDY_SYSTEM: Cytochrome P450 2C9 (Homo sapiens) (UniProt P11712)
# ASSAY_DETAILS: blockers of cytochrome P450 2C9 activity – biochemical, luminescence, ADME assay, primary screen (AID 777)
# APPLIED_CONDITIONS: CYP2C9 Supersomes, luciferin-H conversion, at 5 µM, hits give high values
In all, about 96,000 compounds went through this assay and about 19,000 (20%) were called active. Not all results are given here.
OBSERVED_PROPERTY: inhibition (%)

>>> assay_result("O=C(O)COc1nsnc1N1CCOCC1")
-22.9
>>> assay_result("CC(C)(C)c1cc(=O)n2c(nc3ccccc32)[nH]1")
52
>>> assay_result("COC(=O)C(NC(C)=O)(Nc1nc2c(s1)CCCC2)C(F)(F)F (centres undefined)")
26.9
>>> assay_result("Cc1cc(C)c2c(n1)nn1c(-n3ccnc3)cc(C)nc21")
-4.3
>>> assay_result("COc1ccc(N2C(=O)CCC(C(=O)Nc3ccccn3)C2c2ccc(OC)c(OC)c2)cc1 (centres undefined)")
2.6
>>> assay_result("CCC(=O)NC(Nc1cc(C)ccn1)(C(F)(F)F)C(F)(F)F")
23.8
>>> assay_result("S=C(NCc1ccc(Cl)cc1)NC12CC3CC(CC(C3)C1)C2")
49.3
>>> assay_result("Cc1ccc(-n2nc3ccc(NC(=O)/C=C/c4ccco4)cc3n2)cc1C")
34.5
>>> assay_result("COC(=O)CSc1snnc1-c1ccc(Cl)c(Cl)c1")
6.6
>>> assay_result("Cc1nnc(SCC(=O)NC2CCCC2)s1")
11.5
>>> assay_result("CCN(CC)CC(=O)Nc1nn(-c2ccccc2)nc1C(N)=O")
-20.1
>>> assay_result("O=c1oc2c(Cl)cc(Cl)cc2cc1-c1nnc(Nc2ccccc2F)s1")
-4.3
>>> assay_result("Cc1cccc(OCc2nnc(SCc3nc4cc(C(F)(F)F)ccc4c(=O)[nH]3)o2)c1")
33
>>> assay_result("CC(C)(C)N1CC(c2nc3ccccc3n2Cc2ccc(F)cc2)CC1=O (centres undefined)")
22.8
>>> assay_result("COc1cc(CC(=O)NCc2cccs2)cc(OC)c1OC")
-31
>>> assay_result("CC(C)(C)OC(=O)c1c(N)n(CCCN2CCCC2=O)c2nc3ccccc3nc12")
-1.7
>>> assay_result("O=C(/C=C/Nc1ccccc1)c1cnc(-c2ccccc2)s1")
12.6
>>> assay_result("Cc1ccc(OCCCC(=O)N2CCOCC2)c(C)c1")
4
>>> assay_result("CC1CCCN(C(=O)Cn2c(=O)oc3ccccc32)C1 (centres undefined)")
7.8
>>> assay_result("Cn1c(NN)nc2sc3c(c2c1=O)CCC3")
68.1
>>> assay_result("CCCCn1c(=S)[nH]c2ncccc2c1=O")
13.8
>>> assay_result("O=C(/C=C/c1ccco1)Nc1ccc(Oc2ccccc2)cc1")
11.5
>>> assay_result("O=C(/C=C/c1ccco1)Nc1cccc(-c2nc3ccccc3[nH]2)c1")
81.3
>>> assay_result("Cn1cc(S(=O)(=O)N2CCN(c3ccc(F)cc3)CC2)c(=O)n(C)c1=O")
-8.1
